# credit: patent US20230295310A1

target: T1, human CD3 expressed on cells (Jurkat cells; human primary T cells) (human, UniProt P07766 23-207; P04234 22-171; P09693 23-182); assay: flow cytometry, 25 nM, human primary T cells
T1 construct: whole, on cells
T1 sequence (P07766 23-207, chain 1 of 3): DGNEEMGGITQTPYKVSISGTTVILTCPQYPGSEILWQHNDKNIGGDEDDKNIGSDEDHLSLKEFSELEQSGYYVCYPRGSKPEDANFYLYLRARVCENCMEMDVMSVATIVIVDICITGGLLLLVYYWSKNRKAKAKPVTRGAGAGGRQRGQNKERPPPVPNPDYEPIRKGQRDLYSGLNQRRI
T1 sequence (P04234 22-171, chain 2 of 3): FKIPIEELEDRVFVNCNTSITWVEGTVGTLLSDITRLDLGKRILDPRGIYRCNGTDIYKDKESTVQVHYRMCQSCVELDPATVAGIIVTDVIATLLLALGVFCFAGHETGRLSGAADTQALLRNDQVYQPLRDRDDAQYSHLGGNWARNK
T1 sequence (P09693 23-182, chain 3 of 3): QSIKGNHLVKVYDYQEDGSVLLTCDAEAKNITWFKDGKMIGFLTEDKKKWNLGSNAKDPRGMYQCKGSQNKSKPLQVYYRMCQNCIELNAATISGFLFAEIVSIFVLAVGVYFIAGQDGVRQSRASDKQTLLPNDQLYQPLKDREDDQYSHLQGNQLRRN
value kind: Binding (FOI)

[[record]]
binder = "mAb 226 (antibody, V domains shown, VH/VL only) VH: QVQLVESGGGVVQPGRSLRLSCAASGFTFSGYGMHWVRQAPGKGLEWVAIIYYNGNNRKYADSVKGRFTISRDNSKNTVSLQMNSLRVEDTAIYYCTRGDGYNWFVTWGQGTLVTVSS VL: EIVMTQSPATLSVSPGERATLSCRASQSISSNLAWYHQKPGQAPRLLIYGASTRATGIPVRFSGSGSGTEFTLTISSLQSEDFALYYCQQYNNWPLTFGGGTKVEIK"
recorded_result = "199 FOI"

[[record]]
binder = "mAb 197 (antibody, V domains shown, VH/VL only) VH: QVQLVESGGGVVQPGGSLRLSCAASGFTFSGYGMHWVRQAPGKGLEWVAIIWYNGRKTYYAESVKGRFTISRDNSKNTLSLQMNSLRVEDTAVYYCTTGQGYNWFDPWGQGTLVTVSS VL: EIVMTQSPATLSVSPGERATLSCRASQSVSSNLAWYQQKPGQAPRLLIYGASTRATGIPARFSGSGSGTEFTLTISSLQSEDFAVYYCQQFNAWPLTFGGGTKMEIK"
recorded_result = "260 FOI"

